Target: T1, human KLK5 (human, UniProt Q9Y337 67-293)
T1 construct: also called huKLK5; KLK5 AMC
T1 sequence: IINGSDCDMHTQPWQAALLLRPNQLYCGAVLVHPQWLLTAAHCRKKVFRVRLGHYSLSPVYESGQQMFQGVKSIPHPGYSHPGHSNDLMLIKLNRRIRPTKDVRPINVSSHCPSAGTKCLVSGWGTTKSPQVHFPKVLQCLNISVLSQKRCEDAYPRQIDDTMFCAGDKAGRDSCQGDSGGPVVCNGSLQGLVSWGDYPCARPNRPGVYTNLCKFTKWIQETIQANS
Test: SPR, one-armed monovalent antibody
So I've got a bunch of binders here, and I need their Kd values.
Reply with just the number (in nM).

Requested field: Kd. Item: OA.hu.9H5.H14L4.G54A.G98Q.H89V (antibody, V domains shown, One-armed (OA) monovalent anti-KLK5 antibody with a human IgG1 Fc, with Q38E/Q39K; constant regions and dummy Fc chain not specified) VH: EVQLVESGGGLIQPGGSLRLSCAASGFSLSSYGVSWVRKAPGKGLEYVGFIGSAGFAYYASWAKSRFTISRDNSKNTLYLQMNSLRAEDTAVYYCARDDVQGGKSLDIWGQGTLVTVSS VL: DIQMTQSPSSLSASVGDRVTITCQASQSISSYLSWYQEKPGKAPKLLIYSASTLASGVPSRFSGSGSGTDFTLTISSLQPEDFATYYCVQDYTSSNVDNTFGGGTKVEIK
0.000348

Bench note: what Kd did OA.hu.9H5.H14L4.G54A.H89V.S95Y (antibody, V domains shown, One-armed (OA) monovalent anti-KLK5 antibody with a human IgG1 Fc, with Q38E/Q39K; constant regions and dummy Fc chain not specified) VH: EVQLVESGGGLIQPGGSLRLSCAASGFSLSSYGVSWVRKAPGKGLEYVGFIGSAGFAYYASWAKSRFTISRDNSKNTLYLQMNSLRAEDTAVYYCARDDVGGGKSLDIWGQGTLVTVSS VL: DIQMTQSPSSLSASVGDRVTITCQASQSISSYLSWYQEKPGKAPKLLIYSASTLASGVPSRFSGSGSGTDFTLTISSLQPEDFATYYCVQDYTSYNVDNTFGGGTKVEIK show?
0.0196

Which Kd value is on record for OA.hu.9H5.H14L4.G54A.G98Q.S95Y (antibody, V domains shown, One-armed (OA) monovalent anti-KLK5 antibody with a human IgG1 Fc, with Q38E/Q39K; constant regions and dummy Fc chain not specified) VH: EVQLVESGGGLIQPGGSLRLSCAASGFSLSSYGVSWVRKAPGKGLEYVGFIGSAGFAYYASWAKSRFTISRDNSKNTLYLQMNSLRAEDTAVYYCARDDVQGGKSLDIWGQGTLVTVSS VL: DIQMTQSPSSLSASVGDRVTITCQASQSISSYLSWYQEKPGKAPKLLIYSASTLASGVPSRFSGSGSGTDFTLTISSLQPEDFATYYCHQDYTSYNVDNTFGGGTKVEIK ?
0.00994

Entry OA.hu.9H5.H14L4.G54A.G98Q.H89V.S95Y (antibody, V domains shown, One-armed (OA) monovalent anti-KLK5 antibody with a human IgG1 Fc, with Q38E/Q39K; constant regions and dummy Fc chain not specified) VH: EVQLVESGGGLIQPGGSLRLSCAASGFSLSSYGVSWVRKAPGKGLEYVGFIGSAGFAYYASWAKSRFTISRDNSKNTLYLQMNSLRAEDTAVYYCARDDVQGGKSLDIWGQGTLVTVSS VL: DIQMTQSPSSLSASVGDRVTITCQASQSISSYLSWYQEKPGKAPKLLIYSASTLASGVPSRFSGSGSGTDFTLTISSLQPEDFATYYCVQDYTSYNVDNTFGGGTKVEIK has what Kd?
0.0121

Could you share which Kd value was measured for OA.hu.9H5.H14L4.G98Q.S95Y (antibody, V domains shown, One-armed (OA) monovalent anti-KLK5 antibody with a human IgG1 Fc, with Q38E/Q39K; constant regions and dummy Fc chain not specified) VH: EVQLVESGGGLIQPGGSLRLSCAASGFSLSSYGVSWVRKAPGKGLEYVGFIGSGGFAYYASWAKSRFTISRDNSKNTLYLQMNSLRAEDTAVYYCARDDVQGGKSLDIWGQGTLVTVSS VL: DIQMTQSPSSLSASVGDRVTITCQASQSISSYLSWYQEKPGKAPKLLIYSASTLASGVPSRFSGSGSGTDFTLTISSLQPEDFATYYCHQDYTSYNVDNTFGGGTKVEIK ?
0.0502
